# SYSTEM_TESTED: Human Axl (residues H473-A894 with Q764R) (Homo sapiens (Human), UniProt P30530, Q764R)
# Sequence (P30530 473-894 Q764R): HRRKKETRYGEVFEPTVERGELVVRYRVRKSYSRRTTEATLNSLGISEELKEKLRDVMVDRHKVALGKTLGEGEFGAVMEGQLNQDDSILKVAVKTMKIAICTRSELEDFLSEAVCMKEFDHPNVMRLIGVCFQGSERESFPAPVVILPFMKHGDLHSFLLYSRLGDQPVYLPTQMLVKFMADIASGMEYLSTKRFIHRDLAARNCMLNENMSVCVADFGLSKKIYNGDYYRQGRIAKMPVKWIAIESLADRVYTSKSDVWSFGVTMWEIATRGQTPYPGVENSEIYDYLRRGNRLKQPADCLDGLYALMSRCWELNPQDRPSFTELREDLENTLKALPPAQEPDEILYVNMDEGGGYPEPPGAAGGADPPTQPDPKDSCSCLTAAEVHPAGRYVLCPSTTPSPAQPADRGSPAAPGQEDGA
# MEASUREMENT_NOTES: Human AXL kinase assay (33P radiometric, KinaseProfiler)
# MEASUREMENT_SETUP: 10 μM ATP
pIC50: −log10 of the molar value.
Documented pIC50 across a set of compounds

Solved cases below.
COMPOUND | TEST_VALUE
COc1cc2nccc(Oc3ccc(NC(=O)C4(C(=O)Nc5ccc(F)cc5)CC4)cc3)c2cc1C1CC1 [Compound 187] | ≥ 8.00
COc1cc2nccc(Oc3ccc(NC(=O)C4(C(=O)Nc5ccc(F)cc5)CC4)cc3)c2cc1S(C)(=O)=O [Compound 210] | ≥ 8.00
CNC(=O)c1ccc2nccc(Oc3ccc(NC(=O)C4(C(=O)Nc5ccc(F)cc5)CC4)cc3)c2c1 [Compound 59] | 7.00 to 8.00
CNC(=O)c1cc2c(Oc3ccc(NC(=O)C4(C(=O)Nc5ccc(F)cc5)CC4)cc3Cl)ccnc2cc1OC [Compound 134] | ≥ 8.00
COc1cc2nccc(Oc3ccc(NC(=O)C4(C(=O)Nc5ccc(F)cc5)CC4)cc3)c2cc1-c1cccc(C#N)c1F [Compound 175] | 7.00 to 8.00

Returns the measured pIC50 for the input compound. Input: COc1cc2nccc(Oc3ccc(NC(=O)C4(C(=O)Nc5ccc(F)cc5)CC4)cc3)c2cc1C(=O)NC1CN(C)C1 [Compound 14]
7.00 to 8.00
